Test system: SK-MEL-28 melanoma
Assay: NCI tumour cell line growth inhibition, 48 h
In this section we review reported TGI values for a set of compounds.
Answer with a number only, understood to be in µM.

Look over these answered cases.
{"columns": ["compound", "TGI / µM"],
 "data": [
  ["NC(N)=NN=C(c1ccccc1)c1ccccc1", 36.9],
  ["C=CC(=O)N1CCN(CCCn2c(=O)c(-c3c(Cl)c(OC)cc(OC)c3Cl)cc3cnc(NC)nc32)CC1", 20.9],
  ["C[CH2][Sn]([CH2]C)([O]C(=O)c1ccccc1F)[O]C(=O)c1ccccc1F", 47.6]
]}

// moving on: another record for TGI
Q. Look up TGI: CC(C)(C)c1ccc(O)c(CN(Cc2c(O)ccc3ccccc23)C2CCCCC2)c1
A. 46

====

System: A498 renal
Assay: NCI tumour cell line growth inhibition, 48 h
readout label: TGI

Look over these answered cases.
{"columns": ["compound", "tested on", "result"],
 "data": [
  ["O=C(Cc1cc[n+]([O-])cc1)C(=O)Nc1cc(Cl)c(Cl)cc1Cl", "A498 renal", "> 100 µM"],
  ["OC1CCCN(C2(c3cccs3)CCCCC2)C1 (centres undefined)", "A498 renal", "> 100 µM"],
  ["CN[C@@H](C)C(=O)N[C@H]1CCS[C@H]2CC(C)(C)[C@@H](C(=O)N[C@H]3c4ccccc4C[C@H]3OCC#CC#CCO[C@@H]3Cc4ccccc4[C@@H]3NC(=O)[C@H]3N4C(=O)[C@@H](NC(=O)[C@H](C)NC)CCS[C@H]4CC3(C)C)N2C1=O", "A498 renal", "> 50 µM"]
]}

Q. Identify the measured TGI of COc1cccc2[nH]c3c4c(c5c(c3c12)C(=O)N(CN1CCN(C)CC1)C5=O)CCC4 for A498 renal.
A. > 100 µM

Q. Identify the measured TGI of CCc1n[nH]c(=O)n1/N=C/c1ccc(/C=N/n2c(CC)n[nH]c2=O)cc1 for A498 renal.
A. > 100 µM

Q. Identify the measured TGI of O=C(CC1(O)C(=O)Nc2c(Cl)cc(Cl)cc21)c1ccc(Br)cc1 (centres undefined) for A498 renal.
A. > 66 µM

Q. Identify the measured TGI of Cc1cn(CCCC2=NCCCN2)c(=O)[nH]c1=O for A498 renal.
A. > 100 µM

Q. Identify the measured TGI of COC(=O)C1=C(O)C(C(=O)OC)[C@@]2(O)[C@@H](C(=O)OC)C(c3ccc(OC(=O)/C=C/c4ccccc4)cc3)C[C@@H]1[C@@H]2C(=O)OC (some centres undefined) for A498 renal.
A. > 100 µM

Q. Identify the measured TGI of O=C(O)c1ccc(C(=O)Nc2cccc3ccccc23)c(C(=O)O)c1 for A498 renal.
A. > 100 µM

Q. Identify the measured TGI of O=c1[nH]c(=O)n(COCCOCc2ccccc2)cc1Nc1ccccc1 for A498 renal.
A. > 100 µM

Q. Identify the measured TGI of C=C(CBr)CCCOCc1ccccc1 for A498 renal.
A. > 100 µM

Q. Identify the measured TGI of O=C1C[C@@H](Sc2ccccc2)C2(OCCO2)C2ON3CCCC[C@H]3[C@H]12 (some centres undefined) for A498 renal.
A. > 95.3 µM

Q. Identify the measured TGI of COc1cc(C(c2c(O)c3ccccc3oc2=O)c2c(O)c3ccccc3oc2=O)ccc1O for A498 renal.
A. > 100 µM

Q. Identify the measured TGI of CCOC(=O)C1=c2[nH]c3cccc4cccc(c43)n2C(=O)CC1 for A498 renal.
A. > 100 µM

Q. Identify the measured TGI of NC1=NC(=O)[C@H](Cc2c[nH]c3ccccc23)N1C(=O)OCc1ccccc1 for A498 renal.
A. > 100 µM
